Tested on: NIH3T3MEN2A
Assay: Reversion of RET C634R mutant oncogene-transformed morphologic phenotype of mouse NIH3T3MEN2A cells at 10 uM after 72 hrs
Type: functional, cell-based
Calls of active or inactive are those of the source. No cut-off for these calls is given here.
property-measured: Activity

# example entries with known answers
compound=COc1cc2c(cc1OC)/C(=C\c1ccc(NC(=O)Nc3ccc(N(C)C)cc3)cc1)C(=O)N2 assay_value=inactive
compound=COc1cc2c(cc1OC)/C(=C\c1ccc(NC(=O)Nc3ccc(F)cc3)cc1)C(=O)N2 assay_value=inactive
compound=COc1cc2c(cc1OC)/C(=C\c1ccc(NC(=O)Nc3ccccc3)cc1)C(=O)N2 assay_value=Active
compound=COc1cc2c(cc1OC)/C(=C\c1ccc(NC(=O)N3CCN(C)CC3)cc1)C(=O)N2 assay_value=Active
compound=COc1ccc(NC(=O)Nc2ccc(/C=C3/C(=O)Nc4cc(OC)c(OC)cc43)cc2)cc1 assay_value=Active

Please indicate Activity recorded for COc1cc2c(cc1OC)/C(=C\c1ccc(NC(=O)Nc3ccc4c(c3)OCO4)cc1)C(=O)N2
inactive

Please indicate Activity recorded for O=C(Nc1ccccc1)Nc1ccc(/C=C2\C(=O)Nc3ccccc32)cc1
inactive

Please indicate Activity recorded for COc1cc2c(cc1OC)C(Cc1ccc(NC(=O)Nc3ccccc3)cc1)C(=O)N2 (centres undefined)
inactive

Please indicate Activity recorded for O=C(Nc1ccccc1)Nc1ccc(/C=C2\C(=O)Nc3ccc(Cl)cc32)cc1
inactive

----------
Test: Antiproliferative activity against RET C634R mutant oncogene-transformed mouse NIH3T3MEN2A after 72 hrs
Format: functional
property-measured: IC50 (µM)
Numbers only here, please. The scale is µM.

Please indicate IC50 recorded for O=C(Nc1ccccc1)Nc1ccc(/C=C2/C(=O)Nc3ccccc32)cc1
10

Please indicate IC50 recorded for COc1cc2c(cc1OC)N(C)C(=O)/C2=C/c1ccc(NC(=O)Nc2ccccc2)cc1
4.1

Please indicate IC50 recorded for COc1cc2c(cc1OC)/C(=C\c1ccc(NC(=O)Nc3ccc(F)cc3)cc1)C(=O)N2
6.1

Please indicate IC50 recorded for COc1cc2c(cc1OC)/C(=C\c1ccc(NC(=O)Nc3ccncc3)cc1)C(=O)N2
4.7

Please indicate IC50 recorded for COc1cc2c(cc1OC)/C(=C\c1ccc(NC(=O)Nc3ccccc3)cc1)C(=O)N2
4.6
